B1: POU domain, class 2, transcription factor 1, residues 285 to 354; numbered along this chain, P14859 (parent)
chain: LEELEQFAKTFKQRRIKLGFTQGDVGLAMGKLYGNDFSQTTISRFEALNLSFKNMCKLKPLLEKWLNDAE

# Variants of: B1
# assay-notes: abundance fitness (aPCA) (normalised: wild type 0, dead -1); higher = more abundant; growth selection in yeast, the domain comes from the species named
# protocol-conditions: Homo sapiens
Decision: abundance fitness compared against -0.01; not below it gives fulfilled, below it gives not fulfilled.

| alteration | label-class |
| --- | --- |
| C56G | not fulfilled |
| D36R | not fulfilled |
| E2D | not fulfilled |
| E63I | not fulfilled |
| T10V | not fulfilled |
| K17I | not fulfilled |
| I16F | not fulfilled |
| Q22R | not fulfilled |
| K17V | not fulfilled |
| S38Y | not fulfilled |
| Q22T | not fulfilled |
| K31W | not fulfilled |
| N54T | fulfilled |
| R14E | fulfilled |
| L27P | not fulfilled |
| T21R | not fulfilled |
| Q13H | fulfilled |
| L50M | fulfilled |
| Q39I | not fulfilled |
| C56H | not fulfilled |
| M55L | not fulfilled |
| K31R | fulfilled |
